Where do these numbers come from? They come from patent US20200405697A1.

Entries with their measured IC50, system human RNR (histidine tagged human M1 and human M2 proteins) (Homo sapiens):
observable: IC50 (nM)

Guide cases for IC50, answers given:
compound: COc1cc(Cl)ccc1S(=O)(=O)N[C@H](c1n[nH]c(=O)o1)[C@H](C)c1c(F)ccc(-c2ccc(N3CCCCC3)nc2)c1C [Example 320]
unit-info: nM
IC50: 600
--
compound: COc1c(S(=O)(=O)N[C@H](c2n[nH]c(=O)o2)[C@H](C)c2c(F)ccc(C)c2C)ccc(Cl)c1C(C)(C)O [Example 212]
unit-info: nM
IC50: 110
--
compound: Cc1c(Br)ccc(F)c1[C@@H](C)[C@H](NS(=O)(=O)c1ccc(C(F)(F)F)cc1C(N)=O)c1n[nH]c(=O)o1 [Example 42]
unit-info: nM
IC50: 200
--
compound: Cc1ccc(F)c([C@@H](C)[C@H](NS(=O)(=O)c2ccc(Cl)cc2C(=O)NO)c2n[nH]c(=O)o2)c1C [Example 286]
unit-info: nM
IC50: 70
--
compound: Cc1ccc(F)c([C@@H](C)[C@H](NS(=O)(=O)c2ccc(F)c3c2OCCC3(C)O)c2n[nH]c(=O)o2)c1C (single isomer, unassigned) [Example 224B]
unit-info: nM
IC50: 100

(a) Cc1ccc(F)c([C@@H](C)[C@H](NS(=O)(=O)c2ccc(Cl)c3c2OCCN3)c2n[nH]c(=O)o2)c1C [Example 275]
(b) COc1c(S(=O)(=O)N[C@H](c2n[nH]c(=O)o2)[C@H](C)c2cccc(C)c2C)ccc(Cl)c1C(C)O (stereo partly drawn) [Example 203]
Between these two entries, a and b , state which has the higher IC50. Your answer should be the label of the entry you select.
b

(P) Cc1ccc(F)c([C@@H](C)[C@H](NS(=O)(=O)c2ccc(Cl)c3c2OCCC3(C)O)c2n[nH]c(=O)o2)c1C (single isomer, unassigned) [Example 207B]
(Q) Cc1ccc(F)c([C@@H](C)[C@H](NS(=O)(=O)c2ccc(Cl)cc2C(N)=O)c2n[nH]c(=O)o2)c1Cl [Example 17]
(R) COc1c(S(=O)(=O)N[C@H](c2n[nH]c(=O)o2)[C@H](C)c2c(F)ccc(C)c2C)ccc(Cl)c1C(C)O (single isomer, unassigned) [Example 208B]
(S) COc1ccccc1-c1ccc(C(N)=O)c(S(=O)(=O)N[C@H](c2n[nH]c(=O)o2)[C@H](C)c2c(F)ccc(C)c2C)c1 [Example 345]
Rank descending by IC50. # format: label list in the order the request specifies
Q, S, P, R
(Q: 500 nM, S: 250 nM, P: 90 nM, R: 60 nM)
